Hello, the source for this data is patent US20220119354A1, in case you need it.

- System: ryegrass, Italian (Lolium multiflorum)
- ASSAY NOTES: Test A preemergence, Italian ryegrass
- Type: in vivo
- CONDITION CONTEXT: 125 g ai/ha, 0 to 100 scale, 0 is no effect, 100 is complete control
Documented Ryegrass, Italian plant response rating across a set of molecules

{"MOLECULE": "C[C@@H](Nc1ncc(C(F)(F)F)c(N)n1)c1cc2ccccc2n1C", "TARGET OF ASSAY": "ryegrass, Italian (Lolium multiflorum)", "Ryegrass, Italian plant response rating": 20}
{"MOLECULE": "CCC(Nc1ncc(C(F)(F)F)c(N)n1)c1coc2ccccc12 (racemic)", "TARGET OF ASSAY": "ryegrass, Italian (Lolium multiflorum)", "Ryegrass, Italian plant response rating": 20}
{"MOLECULE": "C[C@@H](Nc1ncc(C(F)(F)F)c(N)n1)c1cc2ccc(F)cc2s1", "TARGET OF ASSAY": "ryegrass, Italian (Lolium multiflorum)", "Ryegrass, Italian plant response rating": 20}
